- assay system: human KEAP1 (N-term, residues 321-609) (Homo sapiens, UniProt Q14145);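 note: fluorescence polarization competition assay of Kelch domain binding to NRF2, 12-point 1:3 dilution series from 10 µM, read after 1 h at room temperature, floor 10 nM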
- Sequence (Q14145 321-609): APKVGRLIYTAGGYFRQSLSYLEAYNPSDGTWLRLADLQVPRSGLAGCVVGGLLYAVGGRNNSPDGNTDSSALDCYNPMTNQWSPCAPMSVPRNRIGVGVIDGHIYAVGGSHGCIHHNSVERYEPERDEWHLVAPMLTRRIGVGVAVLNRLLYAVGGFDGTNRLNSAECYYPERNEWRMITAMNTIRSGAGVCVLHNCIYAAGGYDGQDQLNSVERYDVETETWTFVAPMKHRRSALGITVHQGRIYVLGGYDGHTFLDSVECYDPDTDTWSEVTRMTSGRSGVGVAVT
- protocol details: biochemical
endpoint name: IC50 (nM)

compound: CC(C)n1cc(COc2ccc(F)c3c2[C@@H](CN2Cc4ccccc4C2=O)N(C(=O)[C@@H]2CCCC[C@@H]2C(=O)O)CC3)nn1 [Example 58]
unit abbrev: nM
IC50: 8
--
compound: [2H][C@@H]1C[C@@H](C(=O)N2CCc3c(Cl)ccc(OCc4nnn(C)c4C(F)F)c3[C@H]2CN2CC3(CC3)CC2=O)[C@@](C)(C(=O)O)C[C@@H]1[2H] [Example 210]
unit abbrev: nM
IC50: 5.9
--
compound: Cn1nnc(COc2ccc(Cl)c3c2[C@@H](CN2CC4(CC4)CC2=O)N(C(=O)[C@@H]2CC[C@@H](O)C[C@]2(C)C(=O)O)CC3)c1C(F)F [Example 224]
unit abbrev: nM
IC50: 5.8
